The reported numbers originate from patent US7534806B2.

Test: Rat ibudilast plasma PK and tissue distribution (plasma, muscle, brain, spinal cord)
Assay type: in vivo
Settings: male, Sprague-Dawley, rat, plasma and CNS tissues (brain, spinal cord), ip; ~5 mg/kg i.p., 15% ethanol/saline; read-out: maximal concentration (Cmax) in plasma and CNS tissues
Quantity Measured: Cmax

INPUT: What value of Cmax has been reported for the following compound? `CC(C)C(=O)c1c(C(C)C)nn2ccccc12`
OUTPUT: ~1000 ng/mL
